The measurements presented in this section are drawn from PubChem BioAssay AID1918938.

Test system: 556581-035-R-J1-PDC complex spheroid viability
Assay: Anticancer human tumor 556581-035-R-J1-PDC patient-derived ovarian carcinoma cell line growth inhibition
Settings: curve of first compound; second compound 0.1 µM
Hi there, I'd appreciate the recorded IC50 for every entry that follows.
Numbers only, in µM.

> print(dat)
                                   compound  recorded.result
1  CC(C)CC(NC(=O)CNC(=O)c1cc(Cl)ccc1Cl)B1OC(=O)CC(CC(=O)O)(C(=O)O)O1 (centres undefined) + NC1CCC(NC2CC2c2ccccc2)CC1          0.00401

Please look at the following compound next.
Quick note, IC50 for Nc1ncn(C2CC(O)C(CO)S2)c(=O)n1 (centres undefined) + NC1CC1c1ccc(-c2cccc(O)c2)cc1 landed at 0.0375

----------
Hi there, I'd appreciate the recorded IC50 for every entry that follows.
Tested on: 556581-035-R-J1-PDC complex spheroid viability
Experiment: Anticancer human tumor 556581-035-R-J1-PDC cell line growth inhibition;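 also: spheroids exposed to agents for seven days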
Conditions: curve of first compound; second compound 10 µM
Give bare numbers, in µM.

The cases that follow already have their IC50 on record.
compound	IC50 / µM
Nc1ccccc1NC(=O)c1ccc(CNC(=O)OCc2cccnc2)cc1 + NC1CCC(NC2CC2c2ccccc2)CC1	0.0322
NS(=O)(=O)OCC1CC(n2ccc3c(NC4CCc5ccccc54)ncnc32)CC1O (centres undefined) + NC1CC1c1ccc(-c2cccc(O)c2)cc1	0.134
CC(C)CC(NC(=O)CNC(=O)c1cc(Cl)ccc1Cl)B1OC(=O)CC(CC(=O)O)(C(=O)O)O1 (centres undefined) + NC1CCC(NC2CC2c2ccccc2)CC1	0.00325
Nc1ccn(C2OC(CO)C(O)C2(F)F)c(=O)n1 (centres undefined) + NC1CC1c1ccc(-c2cccc(O)c2)cc1	0.00183
CC(C)c1c(-c2ccccc2)nc2c(C#N)c[nH]n2c1=O + NC1CCC(NC2CC2c2ccccc2)CC1	4.84
O=C(C=Cn1cnc(-c2cc(C(F)(F)F)cc(C(F)(F)F)c2)n1)NNc1cnccn1 + NC1CCC(NC2CC2c2ccccc2)CC1	0.34
CC1(C)CCC(CN2CCN(c3ccc(C(=O)NS(=O)(=O)c4ccc(NCC5CCOCC5)c([N+](=O)[O-])c4)c(Oc4cnc5[nH]ccc5c4)c3)CC2)=C(c2ccc(Cl)cc2)C1 + NC1CC1c1ccc(-c2cccc(O)c2)cc1	3.23
O=C(C=Cc1cccc(S(=O)(=O)Nc2ccccc2)c1)NO + NC1CCC(NC2CC2c2ccccc2)CC1	0.0396
COc1cc(C2c3cc4c(cc3C(OC3OC5COC(C)OC5C(O)C3O)C3COC(=O)C23)OCO4)cc(OC)c1O (centres undefined) + NC1CC1c1ccc(-c2cccc(O)c2)cc1	0.321
CCN(c1cc(-c2ccc(CN3CCOCC3)cc2)cc(C(=O)NCc2c(C)cc(C)[nH]c2=O)c1C)C1CCOCC1 + NC1CCC(NC2CC2c2ccccc2)CC1	1.62

Would you mind listing IC50 for each of the following compounds?
1. CC[C@@]1(O)C(=O)OCc2c1cc1n(c2=O)Cc2cc3c(CN(C)C)c(O)ccc3nc2-1 + NC1CCC(NC2CC2c2ccccc2)CC1
2. CC1COCCN1c1cc(-c2ccnn2C)c2ccnc(-c3ccn[nH]3)c2n1 (centres undefined) + NC1CC1c1ccc(-c2cccc(O)c2)cc1
3. O=C(C=Cc1cccc(S(=O)(=O)Nc2ccccc2)c1)NO + NC1CC1c1ccc(-c2cccc(O)c2)cc1

0.0115
0.00898
0.0636
